Assay: Stability in mouse plasma
Format: ADME, cell-free
Conditions: read-out: Stability
So I've got a bunch of molecules here, and I need their half-life values.

molecule COc1ccc(C2c3[nH]c4ccc(Cl)cc4c3CCN2C(=O)c2cccc(OC)c2)cc1 (configuration not stated) , half-life observed: > 6 h

half-life reported for this molecule COC(=O)c1ccccc1NC(=O)N1CCc2c([nH]c3ccc(Cl)cc23)C1c1ccc(OC)cc1 (configuration not stated) : > 6 h

###

Assay: Stability in human plasma
Type: ADME, cell-free
Conditions: read-out: Stability
So I've got a bunch of compounds here, and I need their half-life values.

Recorded result, COC(=O)c1ccccc1NC(=O)N1CCc2c([nH]c3ccc(Cl)cc23)C1c1ccc(OC)cc1 (configuration not stated) , half-life: > 6 h

COc1ccc(C2c3[nH]c4ccc(Cl)cc4c3CCN2C(=O)c2cccc(OC)c2)cc1 (configuration not stated) has a reported half-life of > 6 h
